Numbers sourced from paper PMC11229439.

system-under-test: cystathionine γ-lyase (CGL) (Rattus norvegicus, UniProt P18757)
Sequence (P18757 whole entry): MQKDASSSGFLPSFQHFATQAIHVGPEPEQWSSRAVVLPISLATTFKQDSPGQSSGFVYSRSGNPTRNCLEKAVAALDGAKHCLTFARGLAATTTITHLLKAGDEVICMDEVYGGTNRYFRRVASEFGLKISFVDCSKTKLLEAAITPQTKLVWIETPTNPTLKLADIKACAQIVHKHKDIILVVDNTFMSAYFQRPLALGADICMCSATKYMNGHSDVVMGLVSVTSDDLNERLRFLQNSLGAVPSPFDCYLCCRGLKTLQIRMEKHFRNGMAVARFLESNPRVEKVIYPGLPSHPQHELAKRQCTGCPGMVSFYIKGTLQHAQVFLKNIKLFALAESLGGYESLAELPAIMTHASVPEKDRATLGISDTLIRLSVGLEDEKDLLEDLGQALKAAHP
property-measured: Ki (µM)
Your answer should be a plain number; it is taken to be in µM.

Prompt: Hello, I am looking for reported Ki with cystathionine γ-lyase (CGL) (Rattus norvegicus, UniProt P18757) for N[C@@H](CS)C(=O)O [cysteine] . Could you help?
Completion: 520
